Conditions: in n-pentanol, 303.1 K
quantity.kind: solubility (mole fraction)
Numbers only.

Quick note, solubility (mole fraction) for "OC[C@@H](O)CN1CCN(c2ccccc2)CC1" landed at 0.00217

---

Conditions: in isopentanol, 303.1 K
quantity.kind: solubility (mole fraction)
One number for each entry.

Quick note, solubility (mole fraction) for "OC[C@@H](O)CN1CCN(c2ccccc2)CC1" landed at 0.00209

---

Details: in n-heptanol, 293.1 K
quantity.kind: solubility (mole fraction)
Numbers only.

Quick note, solubility (mole fraction) for "OC[C@@H](O)CN1CCN(c2ccccc2)CC1" landed at 0.00135

---

Conditions: in n-hexanol, 283.1 K
quantity.kind: solubility (mole fraction)
Give bare numbers.

Quick note, solubility (mole fraction) for "OC[C@@H](O)CN1CCN(c2ccccc2)CC1" landed at 0.000816

---

Details: in ethyl acetate, 288.1 K
quantity.kind: solubility (mole fraction)
Answers are plain numbers.

Quick note, solubility (mole fraction) for "OC[C@@H](O)CN1CCN(c2ccccc2)CC1" landed at 0.000529

---

Conditions: in isopentanol, 288.1 K
quantity.kind: solubility (mole fraction)

Quick note, solubility (mole fraction) for "OC[C@@H](O)CN1CCN(c2ccccc2)CC1" landed at 0.000914

---

Details: in n-butanol, 308.1 K
quantity.kind: solubility (mole fraction)
Answers are plain numbers.

Quick note, solubility (mole fraction) for "OC[C@@H](O)CN1CCN(c2ccccc2)CC1" landed at 0.00239

---

Details: in isopentanol, 318.1 K
quantity.kind: solubility (mole fraction)
One number for each entry.

Quick note, solubility (mole fraction) for "OC[C@@H](O)CN1CCN(c2ccccc2)CC1" landed at 0.00472

---

Details: in isobutanol, 323.1 K
quantity.kind: solubility (mole fraction)
Answers are plain numbers.

Quick note, solubility (mole fraction) for "OC[C@@H](O)CN1CCN(c2ccccc2)CC1" landed at 0.00686

---

Conditions: in isopropyl acetate, 288.1 K
quantity.kind: solubility (mole fraction)
Numbers only.

Quick note, solubility (mole fraction) for "OC[C@@H](O)CN1CCN(c2ccccc2)CC1" landed at 0.000371

---

Conditions: in isopropanol, 293.1 K
quantity.kind: solubility (mole fraction)
Answers are plain numbers.

Quick note, solubility (mole fraction) for "OC[C@@H](O)CN1CCN(c2ccccc2)CC1" landed at 0.000245

---

Settings: in n-butanol, 283.1 K
quantity.kind: solubility (mole fraction)
Answers are plain numbers.

Quick note, solubility (mole fraction) for "OC[C@@H](O)CN1CCN(c2ccccc2)CC1" landed at 0.000527

---

Conditions: in n-butanol, 293.1 K
quantity.kind: solubility (mole fraction)

Quick note, solubility (mole fraction) for "OC[C@@H](O)CN1CCN(c2ccccc2)CC1" landed at 0.000956

---

Details: in isobutanol, 313.1 K
quantity.kind: solubility (mole fraction)
One number for each entry.

Quick note, solubility (mole fraction) for "OC[C@@H](O)CN1CCN(c2ccccc2)CC1" landed at 0.00397

---

Settings: in n-propanol, 313.1 K
quantity.kind: solubility (mole fraction)
Answers are plain numbers.

Quick note, solubility (mole fraction) for "OC[C@@H](O)CN1CCN(c2ccccc2)CC1" landed at 0.00369

---

Details: in isopropyl acetate, 298.1 K
quantity.kind: solubility (mole fraction)
Give bare numbers.

Quick note, solubility (mole fraction) for "OC[C@@H](O)CN1CCN(c2ccccc2)CC1" landed at 0.000609
